Just for reference, PubChem BioAssay (NCI) is where these values come from.

# System: LOX IMVI melanoma
# method.description: NCI tumour cell line growth inhibition, 48 h
measured.property: TGI

See these solved cases before continuing.
{"columns": ["smiles.string", "measured.target", "result"],
 "data": [
  ["CCOC(=O)C(C)(C)Oc1ccc2c(-c3ccccc3)cc(=O)oc2c1", "LOX IMVI melanoma", "49.4 µM"],
  ["C=CCOc1ccc2c(C)cc(=O)oc2c1C", "LOX IMVI melanoma", "> 100 µM"],
  ["Cn1cc(C2=C(c3c4n(c5ccccc35)CCCCC4)C(=O)NC2=O)c2ccccc21", "LOX IMVI melanoma", "> 25 µM"],
  ["[N-]=[N+]=NC[C@H]1OCO[C@H](CN=[N+]=[N-])[C@@H](OCCOCCCl)[C@@H]1OCCOCCCl", "LOX IMVI melanoma", "> 100 µM"],
  ["O=C(Nc1ccc(-n2ccc3c(NC(=O)c4ccccc4)nccc32)cc1)c1ccc(Cl)c(C(F)(F)F)c1", "LOX IMVI melanoma", "3.29 µM"],
  ["CN(C)c1ccc(/C=C\\C2=[N+](C)c3ccccc3C2(C)C)cc1", "LOX IMVI melanoma", "14.6 µM"],
  ["O=c1[nH]c(Nc2cccc(CC(F)(F)F)c2)nc2nc[nH]c12", "LOX IMVI melanoma", "> 100 µM"]
]}

Tell me the measured TGI of Cc1ccc(C(=O)O)cc1S(=O)(=O)Nn1cnc2ccc(S(=O)(=O)Nc3ccccc3C(=O)O)cc2c1=O , please.
> 100 µM

====

The molecules listed here are annotated with their TGI.
# Tested on: UACC-257 melanoma
# method.description: NCI tumour cell line growth inhibition, 48 h

See these solved cases before continuing.
{"columns": ["smiles.string", "measured.target", "TGI"],
 "data": [
  ["CCN1CCN(Cc2ccc(NC(=O)c3cccc(C#Cc4cccc5[nH]nc(N)c45)c3)cc2C(F)(F)F)CC1", "UACC-257 melanoma", "2.82 µM"],
  ["CN(C)c1ccc(/C=C\\C2=[N+](C)c3ccccc3C2(C)C)cc1", "UACC-257 melanoma", "> 31.2 µM"],
  ["COc1cccc(C(=O)O[C@H]2[C@@H]3[C@]4(OC(C)=O)CO[C@@H]4C[C@H](O)[C@@]3(C)C(=O)[C@H](OC(C)=O)C3=C(C)[C@@H](OC(=O)[C@H](O)[C@@H](NC(=O)OC(C)(C)C)c4ccco4)C[C@]2(O)C3(C)C)c1", "UACC-257 melanoma", "> 37.5 µM"],
  ["Cc1nc2n(c1/C=C1/C(=O)Nc3cccc(Cl)c31)CCS2", "UACC-257 melanoma", "> 100 µM"],
  ["Nc1c2c(nc3ccccc13)-c1ccccc1CC2", "UACC-257 melanoma", "9.09 µM"]
]}

Tell me the measured TGI of Cc1cc(Cc2cc(C)c(N)cc2N)c(N)cc1N , please.
> 100 µM

Field entry: O=C(CC(=O)c1cccc2ccccc12)C(=O)Nc1ccc(Cl)cc1
> 100 µM

Field entry: CC(=O)[CH-]C(=O)c1ccccc1.CC(=O)[CH-]C(=O)c1ccccc1.CN(C)c1ccc([O-])cc1.CN(C)c1ccc([O-])cc1.Cl.[Ti+4]
> 31.6 µM

====

# Test system: MDA-MB-231 breast
# method.description: NCI tumour cell line growth inhibition, 48 h
measured.property: TGI

See these solved cases before continuing.
{"columns": ["compound", "result"],
 "data": [
  ["COc1cc2nc3n(c(=O)c2cc1OC)-c1ccc([N+](=O)[O-])cc1C3=O", "> 100 µM"],
  ["Cn1cc(C2=C(c3c4n(c5ccccc35)CCCCC4)C(=O)NC2=O)c2ccccc21", "> 25 µM"],
  ["O=C1c2ccccc2-c2c1c1ccccc1c(=O)n2CCNCCNCCNCCn1c2c(c3ccccc3c1=O)C(=O)c1ccccc1-2", "1.01 µM"]
]}

Read the next record carefully.
Form entry - test system: MDA-MB-231 breast; read-out: TGI; compound: CC1CCc2nc[nH]c(=O)c21 (centres undefined)
> 100 µM

====

# System: TK-10 renal
# method.description: NCI tumour cell line growth inhibition, 48 h
The molecules listed here are annotated with their TGI.

{"columns": ["molecule", "result"],
 "data": [
  ["CO/C(=N\\N=C\\c1ccc(C(F)(F)F)cc1)c1ccncc1", "> 10 µM"]
]}

Tell me the measured TGI of COC(=O)/C(C#N)=C1\NC(=O)c2ccccc21 , please.
> 100 µM

Field entry: O=C(CCc1nc(=S)[nH][nH]1)Nc1ccc(Cl)c(Cl)c1
> 100 µM

====

The molecules listed here are annotated with their TGI.
# Tested on: SW-620 colon
# method.description: NCI tumour cell line growth inhibition, 48 h

{"columns": ["molecule", "TGI"],
 "data": [
  ["CC(=O)O[C@@H]1[C@H](C(C)C)[C@@H](OC(C)=O)C/C(C)=C/CC[C@]2(C)O[C@@H]12", "> 100 µM"],
  ["CCn1c(C)nn2c(=O)c3ccccc3nc2c1=O", "> 100 µM"],
  ["Cc1ccc(S(=O)(=O)OC[C@@H]2CO2)cc1", "> 100 µM"],
  ["C=CCO[C@H]1CO[C@H]2[C@@H]1OC[C@@H]2Oc1ccc(Nc2ccnc(Nc3ccc(O[C@H]4CO[C@H]5[C@@H]4OC[C@@H]5OCC=C)c(Cl)c3)n2)cc1Cl", "3.29 µM"]
]}

Tell me the measured TGI of COC(=O)C([C@H](NC1(c2ccccc2)c2ccccc2-c2ccccc21)C(=O)OC)N(NC(=O)OCc1ccccc1)C(=O)OCc1ccccc1 (mixture of isomers) , please.
> 100 µM

Field entry: CN(C)c1ccc(/C=C\C2=[N+](C)c3ccccc3C2(C)C)cc1
19.1 µM

Field entry: Cc1nc2sccn2c1-c1csc(Nc2ccccc2Cl)n1
25.9 µM

Field entry: COc1ccc(CC2c3cc4c(cc3CCN2C)OCO4)c(C=O)c1OC (stereo not given)
> 100 µM

Field entry: CN(C)C(=O)O/N=C1/C(c2c(O)[nH]c3ccccc23)=Nc2ccccc21
> 100 µM

Field entry: COc1cccc(C2c3cc4c(cc3OC(C)(N3CCCC3)C2C)OCO4)c1O (stereo not given)
> 100 µM

Field entry: N#CCCC1C(C#N)C2(Cl)CC1(Cl)C(Cl)=C2Cl (stereo not given)
> 10 µM

====

# Test system: MDA-MB-435
Hello, when you answer, please use one of the following outcomes: true for active, false for inactive

{"columns": ["molecule", "cat"],
 "data": [
  ["Nc1nc(-n2c(-c3ccccc3)nc3c(Br)cc(Br)cc3c2=O)nnc1-c1cccc(Cl)c1Cl", "false"]
]}

Call for entry O=C1c2ccccc2-c2c1c1ccccc1c(=O)n2CCNCCNCCNCCn1c2c(c3ccccc3c1=O)C(=O)c1ccccc1-2 :
false

Field entry: CN1CCCCC1CCN1c2ccccc2Sc2ccc(Cl)cc21 (stereo not drawn)
false

Field entry: COC([CH2][Hg][n]1cnc2c1c(=O)n(C)c(=O)n2C)CN1C(=O)c2ccccc2S1(=O)=O (stereo not drawn)
false

Field entry: Fc1[nH]nc2ccc([C@@H]3Nc4ccc5[nH]ncc5c4[C@H]4C5CCC(C5)[C@@H]34)cc12 (stereo partly drawn)
true

Field entry: OCc1cc2ccccc2c2c3c(ccc12)OCO3
false

Field entry: Cn1cc(C2=C(c3c4n(c5ccccc35)CCCCC4)C(=O)NC2=O)c2ccccc21
false

Field entry: COC1/C=C/OC2(C)Oc3c(C)c(O)c4c(O)c(c(/C=N/Nc5ccc([N+](=O)[O-])cc5[N+](=O)[O-])c(O)c4c3C2=O)NC(=O)C(C)=C/C=C/C(C)C(O)C(C)C(O)C(C)C(OC(C)=O)C1C (stereo not drawn)
false

Field entry: OC1CSSC1Cn1cnc2c(Nc3ccc(OCc4cccc(F)c4)c(Cl)c3)ncnc21 (stereo not drawn)
true

Field entry: CCN1/C(=C\c2cc[n+](CC)c3ccccc23)C=Cc2ccccc21
true

Field entry: NC(N)=NS(=O)(=O)c1ccc(Nc2c3ccccc3nc3c(C(=O)NCCO)cccc23)cc1
false

Field entry: CCC(=O)[C@H](C)[C@@H](OC(=O)[C@H](C)CC)[C@H](C)[C@H]1OC(CC)=C(C)C(=O)[C@@H]1C
false

Field entry: COc1cc(/C=N\NC(=O)CN2CCN(c3cc4c(cc3F)c(=O)c(C(=O)N/N=C/c3cc(OC)c(OC)c(OC)c3)cn4C3CC3)CC2)cc(OC)c1OC
true

====

# Test system: HL-60(TB) leukemia
# method.description: NCI tumour cell line growth inhibition, 48 h; in the data active = GI50 below about 0.43 µM; inactive = the rest
Hello, when you answer, please use one of the following outcomes: active, inactive

{"columns": ["smiles.string", "cat"],
 "data": [
  ["CCC(=O)[C@H](C)[C@@H](OC(=O)[C@H](C)CC)[C@H](C)[C@H]1OC(CC)=C(C)C(=O)[C@@H]1C", "inactive"]
]}

Call for entry Cn1cc(C2=C(c3c4n(c5ccccc35)CCCCC4)C(=O)NC2=O)c2ccccc21 :
inactive

Field entry: COc1cnc2c(c1)C(=O)c1c-2n(CCCN2CCOCC2)c(=O)c2cc(F)ccc12
active

Field entry: Cc1cc(-c2nc(C(=O)Nc3cc4oc(N5CCOCC5)nc4nc3N3CC[C@@H](O)C3)co2)ccn1
inactive

Field entry: C=CCO[C@H]1CO[C@H]2[C@@H]1OC[C@@H]2Oc1ccc(Nc2ccnc(Nc3ccc(O[C@H]4CO[C@H]5[C@@H]4OC[C@@H]5OCC=C)c(Cl)c3)n2)cc1Cl
inactive
